Could you please report measured kon for the items listed next?
Target System: T1, mouse programmed cell death protein 1 Fc fusion protein (mPD-1-Fc), mPD-1 C60S (aa 25-167) (Mus musculus, UniProt Q02242, stabilised)
T1 construct: not cleaved; source: Expi293F, purified (Protein A, SEC; dimeric fraction); not shown: Fc (human), C-terminal, kept
Assay Procedure: SPR; Carterra LSA; Fab from the ammonium sulfate precipitate of the culture supernatant immobilised on a NiHC200M chip; hPD-1 (1-1024 nM) or mPD-1-Fc (4-1024 nM) as analyte, fourfold dilution series, no regeneration; HBS-EP pH 7.4, 25 °C; medians over the spots of a construct, KD = koff/kon
Condition Set: one partner purified
Your answer is read as M⁻¹ s⁻¹, so omit the unit and give the number.

Identify kon associated with the binder toripalimab Fab H.Y60A (Fab, V domains shown, heavy chain of Sm3 with this change; numbers count from the chain's first residue; as the light chain of Sm3; source: Brevibacillus, culture supernatant (ammonium sulfate precipitate); not shown: 6xHis, C-terminal, kept; 6xHN, C-terminal, kept) VH: QGQLVQSGAEVKKPGASVKVSCKASGYTFTDYEMHWVRQAPIHGLEWIGVIESETGGTAANQKFKGRVTITADKSTSTAYMELSSLRSEDTAVYYCAREGITTVATTYYWYFDVWGQGTTVTVSS VL: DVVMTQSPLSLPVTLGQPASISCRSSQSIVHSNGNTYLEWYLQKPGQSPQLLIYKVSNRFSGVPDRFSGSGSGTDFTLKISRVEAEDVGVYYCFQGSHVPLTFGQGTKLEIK 47900

Identify kon associated with the binder toripalimab Fab L.S57A (Fab, V domains shown, as the heavy chain of Sm3; light chain of Sm3 with this change; numbers count from the chain's first residue; source: Brevibacillus, culture supernatant (ammonium sulfate precipitate); not shown: 6xHis, C-terminal, kept; 6xHN, C-terminal, kept) VH: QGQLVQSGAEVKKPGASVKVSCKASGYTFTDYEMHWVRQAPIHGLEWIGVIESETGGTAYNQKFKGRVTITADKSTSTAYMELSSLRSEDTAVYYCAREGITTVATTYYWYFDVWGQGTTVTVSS VL: DVVMTQSPLSLPVTLGQPASISCRSSQSIVHSNGNTYLEWYLQKPGQSPQLLIYKVANRFSGVPDRFSGSGSGTDFTLKISRVEAEDVGVYYCFQGSHVPLTFGQGTKLEIK 38500

Identify kon associated with the binder toripalimab Fab H.W110Y (Fab, V domains shown, heavy chain of Sm3 with this change; numbers count from the chain's first residue; as the light chain of Sm3; source: Brevibacillus, culture supernatant (ammonium sulfate precipitate); not shown: 6xHis, C-terminal, kept; 6xHN, C-terminal, kept) VH: QGQLVQSGAEVKKPGASVKVSCKASGYTFTDYEMHWVRQAPIHGLEWIGVIESETGGTAYNQKFKGRVTITADKSTSTAYMELSSLRSEDTAVYYCAREGITTVATTYYYYFDVWGQGTTVTVSS VL: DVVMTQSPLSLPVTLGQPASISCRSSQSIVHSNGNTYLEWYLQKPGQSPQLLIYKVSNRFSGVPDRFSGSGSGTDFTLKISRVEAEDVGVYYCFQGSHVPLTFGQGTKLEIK 34500
